src = patent US11220504B2

# studyTarget: human TLR8 (Homo sapiens)
# Construct: expressed in transfected cells; host or cells: HEK293 cells, transient transfection with TLR8 plasmid and NFκB-luc plasmid
# measurementDescription: TLR8 cellular reporter assay (HEK293, NFκB-luc)
# Assay type: cell-based
# experimentalSetup: HEK293 cells transfected with CMV-TLR8 and NFκB-luc, 6 hours incubation; lowest effective concentration
metric: TLR8 LEC (µM)

A = CCCCNc1nc(N)nc2ccn(CCC)c12
B = CCC[C@@H](CO)Nc1nc(N)nc2ccn(Cc3c(OC)cccc3OC)c12
C = Cc1cc(CNc2nc(N)nc3ccn(Cc4cc(C)on4)c23)no1
D = CCC[C@@H](CCO)Nc1nc(N)nc2ccn(Cc3cccc(OC)c3)c12
Rank the listed compounds by TLR8 LEC, largest first. # output: labels, in the requested order
C, D, A, B
(C: 20.2 µM, D: 7.17 µM, A: 2.1 µM, B: 0.04 µM)

---

# studyTarget: human TLR8 (Homo sapiens, UniProt Q9NR97)
# Construct: expressed in transfected cells; host or cells: HEK293 cells, transient transfection with TLR8 plasmid and NFκB-luc plasmid
# Sequence (Q9NR97 27-1041): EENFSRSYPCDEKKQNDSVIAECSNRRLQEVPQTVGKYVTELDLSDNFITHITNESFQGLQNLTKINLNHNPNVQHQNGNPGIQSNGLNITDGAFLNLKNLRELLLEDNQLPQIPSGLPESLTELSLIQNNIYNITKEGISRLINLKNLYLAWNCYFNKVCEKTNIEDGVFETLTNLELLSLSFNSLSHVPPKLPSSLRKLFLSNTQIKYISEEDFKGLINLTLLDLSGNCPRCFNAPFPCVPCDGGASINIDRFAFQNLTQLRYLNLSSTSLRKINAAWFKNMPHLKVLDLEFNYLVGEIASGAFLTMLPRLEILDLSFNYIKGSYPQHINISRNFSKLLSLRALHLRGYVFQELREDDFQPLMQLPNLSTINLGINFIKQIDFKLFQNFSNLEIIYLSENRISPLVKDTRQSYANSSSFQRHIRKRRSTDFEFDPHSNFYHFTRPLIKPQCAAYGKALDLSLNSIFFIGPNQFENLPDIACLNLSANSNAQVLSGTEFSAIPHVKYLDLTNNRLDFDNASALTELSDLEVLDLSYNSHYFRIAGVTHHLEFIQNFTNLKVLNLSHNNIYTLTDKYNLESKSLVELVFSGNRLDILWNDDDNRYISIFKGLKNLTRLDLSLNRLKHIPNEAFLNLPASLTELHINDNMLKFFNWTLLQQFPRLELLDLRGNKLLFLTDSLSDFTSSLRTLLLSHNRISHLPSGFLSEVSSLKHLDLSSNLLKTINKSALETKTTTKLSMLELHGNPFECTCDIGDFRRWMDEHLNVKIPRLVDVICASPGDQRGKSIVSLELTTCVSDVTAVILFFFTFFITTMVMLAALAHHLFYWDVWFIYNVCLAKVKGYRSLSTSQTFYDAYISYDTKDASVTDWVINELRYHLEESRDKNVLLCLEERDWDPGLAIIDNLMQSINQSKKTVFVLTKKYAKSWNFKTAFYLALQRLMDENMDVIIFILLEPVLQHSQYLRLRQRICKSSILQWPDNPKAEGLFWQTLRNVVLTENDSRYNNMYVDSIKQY
# measurementDescription: TLR8 cellular reporter assay (HEK293, NFκB-luc)
# Format: cell-based
# experimentalSetup: HEK293 cells transfected with CMV-TLR8 and NFκB-luc, 6 hours incubation; lowest effective concentration
This listing pairs compounds with measured TLR8 LEC.

// solved cases for TLR8 LEC follow
>  <compound>
CCCCNc1nc(N)nc2ccn(CC3CC3)c12 [Compound 53]

>  <measuredResult>
>25 µM

$$$$
>  <compound>
CCCC[C@@H](CCO)Nc1nc(N)nc2ccn(Cc3ccccc3)c12 [Compound 37]

>  <measuredResult>
>25 µM

$$$$
>  <compound>
Cc1cc(CNc2nc(N)nc3ccn(Cc4cscn4)c23)no1 [Compound 154]

>  <measuredResult>
>25 µM

$$$$
>  <compound>
CCC[C@@H](CCO)Nc1nc(N)nc2ccn(Cc3ccccc3)c12 [Compound 21]

>  <measuredResult>
7.4 µM

$$$$

Now for a further compound.
Quick one: TLR8 LEC for CC(Nc1nc(N)nc2ccn(C)c12)c1ccccn1 (centres unmarked) [Compound 104] ?
>25 µM

---

# studyTarget: human TLR8 (Homo sapiens)
# Construct: expressed in transfected cells; host or cells: HEK293 cells, transient transfection with TLR8 plasmid and NFκB-luc plasmid
# measurementDescription: TLR8 cellular reporter assay (HEK293, NFκB-luc)
# Assay type: cell-based
# experimentalSetup: HEK293 cells transfected with CMV-TLR8 and NFκB-luc, 6 hours incubation; lowest effective concentration
This listing pairs compounds with measured TLR8 LEC.

Any idea what TLR8 LEC came out for COCCn1ccc2nc(N)nc(NC(C)c3cccnc3)c21 (stereo not shown) [Compound 201] on human TLR8 (Homo sapiens)?
>25 µM

Nc1nc(NCc2ccon2)c2c(ccn2Cc2ccccn2)n1 [Compound 155] ?
>25 µM

---

# studyTarget: human TLR7 (Homo sapiens, UniProt Q9NYK1)
# Construct: expressed in transfected cells; host or cells: HEK293 cells, transient transfection with CMV-TLR7 plasmid and NFκB-luc plasmid
# measurementDescription: TLR7 cellular reporter assay (HEK293, NFκB-luc)
# Assay type: cell-based
# experimentalSetup: HEK293 cells transfected with CMV-TLR7 and NFκB-luc, 6 hours incubation; lowest effective concentration
metric: TLR7 LEC (µM)

// solved cases for TLR7 LEC follow
>  <querySmiles>
CCCC[C@@H](CCO)Nc1nc(N)nc2ccn(Cc3ccccn3)c12

>  <metric>
TLR7 LEC

>  <measuredResult>
0.01

$$$$
>  <querySmiles>
Cc1cccc(Cn2ccc3nc(N)nc(NCc4cc(C)on4)c32)n1

>  <metric>
TLR7 LEC

>  <measuredResult>
0.03

$$$$
>  <querySmiles>
Cn1ccc(CNc2nc(N)nc3ccn(Cc4ccccc4)c23)n1

>  <metric>
TLR7 LEC

>  <measuredResult>
22.43

$$$$
>  <querySmiles>
CCC[C@@H](CCO)Nc1nc(N)nc2ccn(Cc3cccc(OC)c3)c12

>  <metric>
TLR7 LEC

>  <measuredResult>
0.005

$$$$
>  <querySmiles>
COc1cc(OC)nc(Cn2ccc3nc(N)nc(NCc4noc(C)n4)c32)n1

>  <metric>
TLR7 LEC

>  <measuredResult>
0.04

$$$$

I = CCC[C@@H](CCO)Nc1nc(N)nc2ccn(Cc3ccccc3F)c12
II = COCCNc1nc(N)nc2ccn(Cc3ccccc3OC(F)F)c12
Decide: I or II , by lowest recorded TLR7 LEC. Your answer should be the label of the entry you select.
I

---

# studyTarget: human TLR8 (Homo sapiens, UniProt Q9NR97)
# Construct: expressed in transfected cells; host or cells: HEK293 cells, transient transfection with TLR8 plasmid and NFκB-luc plasmid
# measurementDescription: TLR8 cellular reporter assay (HEK293, NFκB-luc)
# Type: cell-based
# experimentalSetup: HEK293 cells transfected with CMV-TLR8 and NFκB-luc, 6 hours incubation; lowest effective concentration
metric: TLR8 LEC

// solved cases for TLR8 LEC follow
>  <compound>
COCCn1ccc2nc(N)nc(N[C@H](C)c3ccccn3)c21 (single isomer, unassigned)

>  <studyTarget>
human TLR8 (Homo sapiens, UniProt Q9NR97)

>  <measuredResult>
>25 µM

$$$$
>  <compound>
Nc1nc(NCc2cc(C3CC3)on2)c2c(ccn2Cc2ccccn2)n1

>  <studyTarget>
human TLR8 (Homo sapiens, UniProt Q9NR97)

>  <measuredResult>
>25 µM

$$$$
>  <compound>
Cc1nc(Cn2ccc3nc(N)nc(NC(C)c4ccccn4)c32)cs1 (stereo not shown)

>  <studyTarget>
human TLR8 (Homo sapiens, UniProt Q9NR97)

>  <measuredResult>
>25 µM

$$$$

Quick one: TLR8 LEC for COCCn1ccc2nc(N)nc(NCc3cc(C4CC4)on3)c21 ?
11.4 µM

---

# studyTarget: human TLR7 (Homo sapiens, UniProt Q9NYK1)
# Construct: expressed in transfected cells; host or cells: HEK293 cells, transient transfection with CMV-TLR7 plasmid and NFκB-luc plasmid
# Sequence (Q9NYK1 27-1049): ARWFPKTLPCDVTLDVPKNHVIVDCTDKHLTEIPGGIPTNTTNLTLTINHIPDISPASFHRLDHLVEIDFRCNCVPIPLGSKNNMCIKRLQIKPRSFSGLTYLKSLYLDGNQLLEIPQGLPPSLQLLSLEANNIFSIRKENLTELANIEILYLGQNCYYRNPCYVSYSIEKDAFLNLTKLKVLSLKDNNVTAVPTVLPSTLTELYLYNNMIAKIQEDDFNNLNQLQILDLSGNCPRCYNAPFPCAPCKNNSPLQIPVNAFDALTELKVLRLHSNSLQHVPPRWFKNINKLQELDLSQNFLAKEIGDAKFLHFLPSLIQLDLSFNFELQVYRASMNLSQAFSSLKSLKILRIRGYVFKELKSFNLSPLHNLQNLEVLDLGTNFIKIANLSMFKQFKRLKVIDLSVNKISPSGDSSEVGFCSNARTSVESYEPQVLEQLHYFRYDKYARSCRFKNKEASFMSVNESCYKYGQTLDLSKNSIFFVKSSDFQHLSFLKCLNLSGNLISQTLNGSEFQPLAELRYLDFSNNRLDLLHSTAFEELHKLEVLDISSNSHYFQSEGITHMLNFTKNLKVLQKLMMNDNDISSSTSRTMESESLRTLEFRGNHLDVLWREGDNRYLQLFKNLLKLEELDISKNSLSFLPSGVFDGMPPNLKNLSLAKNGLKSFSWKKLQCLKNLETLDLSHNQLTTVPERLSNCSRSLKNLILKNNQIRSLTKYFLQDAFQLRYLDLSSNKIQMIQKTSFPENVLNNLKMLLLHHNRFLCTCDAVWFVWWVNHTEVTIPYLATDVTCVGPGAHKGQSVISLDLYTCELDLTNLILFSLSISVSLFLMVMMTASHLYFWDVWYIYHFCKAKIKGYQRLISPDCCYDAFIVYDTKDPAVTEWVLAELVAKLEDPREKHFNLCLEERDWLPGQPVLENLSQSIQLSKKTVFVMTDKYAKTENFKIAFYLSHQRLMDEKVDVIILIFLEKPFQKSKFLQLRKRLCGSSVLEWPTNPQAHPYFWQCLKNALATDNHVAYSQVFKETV
# measurementDescription: TLR7 cellular reporter assay (HEK293, NFκB-luc)
# Assay type: cell-based
# experimentalSetup: HEK293 cells transfected with CMV-TLR7 and NFκB-luc, 6 hours incubation; lowest effective concentration
metric: TLR7 LEC (µM)

// solved cases for TLR7 LEC follow
>  <compound>
Cc1nc(CNc2nc(N)nc3ccn(Cc4ncccn4)c23)no1

>  <metric>
TLR7 LEC

>  <measuredResult>
1.04

$$$$
>  <compound>
CCCCNc1nc(N)nc2c(C)cn(Cc3ccccc3)c12 [Compound 58]

>  <metric>
TLR7 LEC

>  <measuredResult>
0.24

$$$$
>  <compound>
Cc1cc(CNc2nc(N)nc3ccn(Cc4cccc(C(N)=O)n4)c23)no1

>  <metric>
TLR7 LEC

>  <measuredResult>
1.40

$$$$
>  <compound>
Cc1cc(CNc2nc(N)nc3ccn(Cc4cc(C)on4)c23)no1

>  <metric>
TLR7 LEC

>  <measuredResult>
0.06

$$$$
>  <compound>
Cc1cc(CNc2nc(N)nc3ccn(Cc4csc(C)n4)c23)no1

>  <metric>
TLR7 LEC

>  <measuredResult>
0.07

$$$$

A = CCC[C@@H](CCO)Nc1nc(N)nc2ccn(CC(C)C)c12
B = COCCNc1nc(N)nc2ccn(Cc3cccc(CN4CCCC4)c3)c12
C = Nc1nc(NCc2nccs2)c2c(ccn2Cc2ccccc2)n1
D = COc1cccnc1Cn1ccc2nc(N)nc(NCc3noc(C)n3)c21
Ordering criterion: TLR7 LEC; begin with the maximum. # output: labels, in the requested order
B, C, A, D

1 = CCCCNc1nc(N)nc2ccn(CC3CCC3)c12
2 = Cc1nc(CNc2nc(N)nc3ccn(Cc4cnccn4)c23)no1
3 = CCC[C@@H](CCO)Nc1nc(N)nc2c(F)cn(Cc3ccccc3)c12
4 = CCCC[C@@H](CCO)Nc1nc(N)nc2ccn(CC3CCC3)c12
Ordering criterion: TLR7 LEC; begin with the maximum. # output: labels, in the requested order
2, 1, 4, 3
(2: 1.78 µM, 1: 0.06 µM, 4: 0.04 µM, 3: 0.01 µM)

a = CCCCNc1nc(N)nc2ccn(CCC)c12
b = CC(C)c1cc(CNc2nc(N)nc3ccn(Cc4cscn4)c23)no1
Decide: a or b , by lowest recorded TLR7 LEC. Your answer should be the label of the entry you select.
b

a = COc1ccnc(Cn2ccc3nc(N)nc(NCc4cc(C)on4)c32)c1OC
b = CC(C)CCNc1nc(N)nc2ccn(Cc3ccccc3)c12
Decide: a or b , by lowest recorded TLR7 LEC. Your answer should be the label of the entry you select.
a
(a: 0.09 µM, b: 5.14 µM)
